Reported values of Emax for individual entries
Molecular target: human GLP-1R receptor (Homo sapiens)
Construct: expressed in transfected cells
Sequence (P43220 24-463): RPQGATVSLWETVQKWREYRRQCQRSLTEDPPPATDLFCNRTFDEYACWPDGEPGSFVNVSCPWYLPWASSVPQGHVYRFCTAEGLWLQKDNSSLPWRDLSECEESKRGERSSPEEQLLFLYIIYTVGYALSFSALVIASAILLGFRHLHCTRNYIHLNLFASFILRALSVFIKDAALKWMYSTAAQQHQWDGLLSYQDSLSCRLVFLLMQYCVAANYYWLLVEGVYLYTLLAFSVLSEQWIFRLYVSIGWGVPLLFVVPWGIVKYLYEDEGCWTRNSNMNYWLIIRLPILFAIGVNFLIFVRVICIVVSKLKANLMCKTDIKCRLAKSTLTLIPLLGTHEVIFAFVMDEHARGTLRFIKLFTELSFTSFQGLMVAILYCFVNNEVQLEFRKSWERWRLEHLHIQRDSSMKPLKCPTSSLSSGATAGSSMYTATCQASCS
Assay: GLP-1R low expression cell assay (cAMP TR-FRET, CHO-K1_hGLP-1Rlow_clone10 cells)
Assay type: cell-based
Settings: maximum activation relative to control GLP-1 peptide agonist

See these solved cases before continuing.
[
  {
    "COMPOUND": "CC(C)Oc1cc(C(=O)O)cc2c1nc(CN1CCC(c3cccc4c3O[C@@](C)(c3ccc(Cl)cn3)O4)CC1)n2C",
    "EXPERIMENTAL_SYSTEM": "human GLP-1R receptor (Homo sapiens)",
    "Emax": "> 85%"
  },
  {
    "COMPOUND": "[2H]C([2H])(Oc1cccc(C2CCN(Cc3nc4c(OC(F)F)cc(C(=O)O)cc4n3C)CC2)n1)c1ccc(Cl)cc1F",
    "EXPERIMENTAL_SYSTEM": "human GLP-1R receptor (Homo sapiens)",
    "Emax": "> 85%"
  },
  {
    "COMPOUND": "C[C@@H](Oc1ccccc1C1CCN(Cc2nc3c(OC(F)F)cc(C(=O)O)cc3n2C)CC1)c1ccc(C#N)cc1F (single isomer, unassigned)",
    "EXPERIMENTAL_SYSTEM": "human GLP-1R receptor (Homo sapiens)",
    "Emax": "< 25%"
  },
  {
    "COMPOUND": "COc1cc(C#CC(=O)O)cc2c1nc(CN1CCC(c3cccc(OCc4ccc(Cl)cc4F)n3)CC1)n2C[C@@H]1CCO1",
    "EXPERIMENTAL_SYSTEM": "human GLP-1R receptor (Homo sapiens)",
    "Emax": "50 to 85%"
  },
  {
    "COMPOUND": "Cn1c(CN2CCC(c3cccc(F)c3OCc3ccc(Cl)cc3F)CC2)nc2c(OC(F)F)cc(C(=O)O)cc21",
    "EXPERIMENTAL_SYSTEM": "human GLP-1R receptor (Homo sapiens)",
    "Emax": "> 85%"
  }
]

Field Emax (system: human GLP-1R receptor (Homo sapiens)) for entry Cn1c(CN2CCC(c3cccc(OCc4ccc(C5CC5)cc4F)n3)CC2)nc2c(OC(F)F)cc(C(=O)O)cc21 = > 85%
